target: Casein kinase II subunit alpha (Homo sapiens) (UniProt P68400); conditions: at 0.1 µM
Sequence (P68400 whole entry, looked up): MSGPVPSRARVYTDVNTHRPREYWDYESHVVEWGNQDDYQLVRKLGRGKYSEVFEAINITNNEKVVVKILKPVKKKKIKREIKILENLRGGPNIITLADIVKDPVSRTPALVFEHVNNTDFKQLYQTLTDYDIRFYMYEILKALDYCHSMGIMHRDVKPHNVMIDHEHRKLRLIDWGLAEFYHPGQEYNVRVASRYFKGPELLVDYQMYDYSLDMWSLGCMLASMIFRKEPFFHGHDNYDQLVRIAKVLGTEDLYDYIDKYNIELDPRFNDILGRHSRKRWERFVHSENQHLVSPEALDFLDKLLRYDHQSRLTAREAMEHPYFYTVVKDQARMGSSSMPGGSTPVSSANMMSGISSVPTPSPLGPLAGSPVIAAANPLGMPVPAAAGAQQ
Description: GSK_PKIS: CK2 mean inhibition at 0.1 uM [Nanosyn]
Recorded inhibition, one value per entry.
Hi! Could you send only the number? It should be in %, unit omitted.

Illustrative cases are given below, each with its answer.
MOL_SMILES: O=C(Nc1n[nH]c2cc(-c3ccc(F)cc3)ccc12)C1CC1
UNIT_ABBREVIATION: %
inhibition: 2.04
--
MOL_SMILES: NS(=O)(=O)c1ccc(N/N=C2\C(=O)Nc3ccc4ncccc4c32)cc1
UNIT_ABBREVIATION: %
inhibition: 5.01
--
MOL_SMILES: COc1ccc(-c2cc3c(N)ncnc3o2)cc1
UNIT_ABBREVIATION: %
inhibition: 4.9
--
MOL_SMILES: Cc1cccc(Nc2ncc(-c3ccccc3)o2)c1
UNIT_ABBREVIATION: %
inhibition: 4.16
--
MOL_SMILES: CCn1cc(-c2ccnc3[nH]ccc23)c(-c2cccc(NC(=O)Nc3ccc(OCc4ccccc4)cc3)c2)n1
UNIT_ABBREVIATION: %
inhibition: 9.36

Entry "CC(C)COC(=O)c1ccc2c(c1)/C(=C/Nc1ccc(S(N)(=O)=O)cc1)C(=O)N2" , inhibition reported as 7.86

Entry "COc1cc(N2CCN(C(C)C)CC2)ccc1Nc1nc(Nc2ccc(F)cc2C(N)=O)c2cc[nH]c2n1" , inhibition reported as 15.7

Entry "Fc1cccc(COc2ccc(Nc3ncnc4sc(-c5ccco5)cc34)cc2Cl)c1" , inhibition reported as 8.17

Entry "CN(C)CCOc1ccc(-c2nc(-c3ccncc3)c(-c3ccc4c(c3)CC/C4=N\O)[nH]2)cc1" , inhibition reported as 3.04

Entry "Clc1ccc(-c2nn3ncccc3c2-c2ccnc(Nc3ccccc3)n2)cc1" , inhibition reported as 1.72

Entry "COC(=O)Nc1nc2ccc(Oc3ccc(NC(=O)Nc4cccc(Cl)c4)cc3)cc2[nH]1" , inhibition reported as 4.68

Entry "O=C(O[C@H]1CN[C@H](C#Cc2cc3ncnc(Nc4ccc(Cc5ccccc5)cc4)c3s2)C1)N1CCOCC1" , inhibition reported as 6.95

Entry "COc1ccc(CNC(=O)c2ccc(-c3cc(-c4nnc(C)o4)ccc3C)cc2)cc1" , inhibition reported as 6.07
